// data source = patent US20180326084A1

The binders listed here are annotated with their kon.
# experimental system: T1, AXLECDHis (human, UniProt P30530 26-447)
# T1 construct: theoretical mass 46 kDa used; also called extracellular domain (ECD) of human AXL (aa 1-447) with a C-terminal His tag; soluble recombinant AXL extracellular domain
# T1 sequence (P30530 26-447): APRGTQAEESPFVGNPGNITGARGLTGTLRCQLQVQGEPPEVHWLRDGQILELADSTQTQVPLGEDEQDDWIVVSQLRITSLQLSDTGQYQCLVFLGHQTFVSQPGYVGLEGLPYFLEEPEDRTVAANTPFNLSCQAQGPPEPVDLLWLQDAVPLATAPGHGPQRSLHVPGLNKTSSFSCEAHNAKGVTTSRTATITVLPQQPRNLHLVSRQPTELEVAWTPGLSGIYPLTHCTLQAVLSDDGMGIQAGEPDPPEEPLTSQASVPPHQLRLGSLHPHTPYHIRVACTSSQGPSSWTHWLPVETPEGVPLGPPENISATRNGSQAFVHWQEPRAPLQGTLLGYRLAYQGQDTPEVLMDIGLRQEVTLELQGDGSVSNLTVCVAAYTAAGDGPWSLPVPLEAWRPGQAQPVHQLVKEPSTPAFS
# measurement description: BLI (Octet), IgG on anti-human Fc sensor, AXLECDHis analyte
Give just the numeric value; M⁻¹ s⁻¹ need not be written.

IgG1-AXL-148 (antibody, V domains shown) VH: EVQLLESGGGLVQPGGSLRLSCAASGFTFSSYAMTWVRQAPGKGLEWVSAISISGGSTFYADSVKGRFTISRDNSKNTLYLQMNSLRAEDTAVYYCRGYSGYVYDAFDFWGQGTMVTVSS VL: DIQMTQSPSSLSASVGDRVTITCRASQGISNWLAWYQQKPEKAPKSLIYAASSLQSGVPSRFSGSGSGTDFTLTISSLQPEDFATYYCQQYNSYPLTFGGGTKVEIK
230000
IgG1-AXL-733 (antibody, V domains shown) VH: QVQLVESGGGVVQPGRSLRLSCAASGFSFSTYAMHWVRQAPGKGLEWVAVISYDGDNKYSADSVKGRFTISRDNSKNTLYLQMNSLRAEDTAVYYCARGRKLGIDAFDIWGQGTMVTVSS VL: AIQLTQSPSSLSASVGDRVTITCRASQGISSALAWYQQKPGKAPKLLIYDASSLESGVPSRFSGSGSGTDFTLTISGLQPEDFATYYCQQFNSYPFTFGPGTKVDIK
160000

Would you kindly look at the next entry?
Give a short answer stating reported kon for IgG1-AXL-183 (antibody, V domains shown) VH: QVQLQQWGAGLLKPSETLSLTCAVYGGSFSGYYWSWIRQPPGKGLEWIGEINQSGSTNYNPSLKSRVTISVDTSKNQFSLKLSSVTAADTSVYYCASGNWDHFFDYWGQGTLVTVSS VL: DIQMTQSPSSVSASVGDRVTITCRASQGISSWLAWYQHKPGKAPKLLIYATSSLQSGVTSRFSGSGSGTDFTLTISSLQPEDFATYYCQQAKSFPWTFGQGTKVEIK .
41000
